molecular target: 5-hydroxytryptamine receptor 2A (Homo sapiens, UniProt P28223)
measuredAttribute: IC50

response.value for CNC(=O)c1cc(C(=O)NC2CC2)cn(Cc2ccccc2)c1=O (field: IC50) = > 25.1 µM

* * *

molecular target: UniProt:P35372; assay: Cross screening panel
Sequence (P35372 whole entry): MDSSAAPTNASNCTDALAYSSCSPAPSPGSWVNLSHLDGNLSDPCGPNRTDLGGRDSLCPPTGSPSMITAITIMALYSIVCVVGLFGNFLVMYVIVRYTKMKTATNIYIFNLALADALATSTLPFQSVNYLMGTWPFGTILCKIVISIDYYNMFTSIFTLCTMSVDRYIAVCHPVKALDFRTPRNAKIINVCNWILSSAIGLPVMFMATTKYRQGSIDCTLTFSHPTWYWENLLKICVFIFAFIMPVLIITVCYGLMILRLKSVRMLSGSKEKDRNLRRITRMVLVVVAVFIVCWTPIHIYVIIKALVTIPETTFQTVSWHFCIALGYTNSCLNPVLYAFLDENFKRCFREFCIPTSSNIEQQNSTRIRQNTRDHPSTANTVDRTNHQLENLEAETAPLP
pEC50: −log10 of the molar value.
measuredAttribute: pEC50

Item: CNC(=O)c1cc(C(=O)NC2CC2)cn(Cc2ccccc2)c1=O | pEC50: < 4.00

* * *

biological target: CREB-binding protein (Homo sapiens, UniProt Q92793); experiment: CREBBP DiscoverX BROMOscan
Sequence (Q92793 whole entry): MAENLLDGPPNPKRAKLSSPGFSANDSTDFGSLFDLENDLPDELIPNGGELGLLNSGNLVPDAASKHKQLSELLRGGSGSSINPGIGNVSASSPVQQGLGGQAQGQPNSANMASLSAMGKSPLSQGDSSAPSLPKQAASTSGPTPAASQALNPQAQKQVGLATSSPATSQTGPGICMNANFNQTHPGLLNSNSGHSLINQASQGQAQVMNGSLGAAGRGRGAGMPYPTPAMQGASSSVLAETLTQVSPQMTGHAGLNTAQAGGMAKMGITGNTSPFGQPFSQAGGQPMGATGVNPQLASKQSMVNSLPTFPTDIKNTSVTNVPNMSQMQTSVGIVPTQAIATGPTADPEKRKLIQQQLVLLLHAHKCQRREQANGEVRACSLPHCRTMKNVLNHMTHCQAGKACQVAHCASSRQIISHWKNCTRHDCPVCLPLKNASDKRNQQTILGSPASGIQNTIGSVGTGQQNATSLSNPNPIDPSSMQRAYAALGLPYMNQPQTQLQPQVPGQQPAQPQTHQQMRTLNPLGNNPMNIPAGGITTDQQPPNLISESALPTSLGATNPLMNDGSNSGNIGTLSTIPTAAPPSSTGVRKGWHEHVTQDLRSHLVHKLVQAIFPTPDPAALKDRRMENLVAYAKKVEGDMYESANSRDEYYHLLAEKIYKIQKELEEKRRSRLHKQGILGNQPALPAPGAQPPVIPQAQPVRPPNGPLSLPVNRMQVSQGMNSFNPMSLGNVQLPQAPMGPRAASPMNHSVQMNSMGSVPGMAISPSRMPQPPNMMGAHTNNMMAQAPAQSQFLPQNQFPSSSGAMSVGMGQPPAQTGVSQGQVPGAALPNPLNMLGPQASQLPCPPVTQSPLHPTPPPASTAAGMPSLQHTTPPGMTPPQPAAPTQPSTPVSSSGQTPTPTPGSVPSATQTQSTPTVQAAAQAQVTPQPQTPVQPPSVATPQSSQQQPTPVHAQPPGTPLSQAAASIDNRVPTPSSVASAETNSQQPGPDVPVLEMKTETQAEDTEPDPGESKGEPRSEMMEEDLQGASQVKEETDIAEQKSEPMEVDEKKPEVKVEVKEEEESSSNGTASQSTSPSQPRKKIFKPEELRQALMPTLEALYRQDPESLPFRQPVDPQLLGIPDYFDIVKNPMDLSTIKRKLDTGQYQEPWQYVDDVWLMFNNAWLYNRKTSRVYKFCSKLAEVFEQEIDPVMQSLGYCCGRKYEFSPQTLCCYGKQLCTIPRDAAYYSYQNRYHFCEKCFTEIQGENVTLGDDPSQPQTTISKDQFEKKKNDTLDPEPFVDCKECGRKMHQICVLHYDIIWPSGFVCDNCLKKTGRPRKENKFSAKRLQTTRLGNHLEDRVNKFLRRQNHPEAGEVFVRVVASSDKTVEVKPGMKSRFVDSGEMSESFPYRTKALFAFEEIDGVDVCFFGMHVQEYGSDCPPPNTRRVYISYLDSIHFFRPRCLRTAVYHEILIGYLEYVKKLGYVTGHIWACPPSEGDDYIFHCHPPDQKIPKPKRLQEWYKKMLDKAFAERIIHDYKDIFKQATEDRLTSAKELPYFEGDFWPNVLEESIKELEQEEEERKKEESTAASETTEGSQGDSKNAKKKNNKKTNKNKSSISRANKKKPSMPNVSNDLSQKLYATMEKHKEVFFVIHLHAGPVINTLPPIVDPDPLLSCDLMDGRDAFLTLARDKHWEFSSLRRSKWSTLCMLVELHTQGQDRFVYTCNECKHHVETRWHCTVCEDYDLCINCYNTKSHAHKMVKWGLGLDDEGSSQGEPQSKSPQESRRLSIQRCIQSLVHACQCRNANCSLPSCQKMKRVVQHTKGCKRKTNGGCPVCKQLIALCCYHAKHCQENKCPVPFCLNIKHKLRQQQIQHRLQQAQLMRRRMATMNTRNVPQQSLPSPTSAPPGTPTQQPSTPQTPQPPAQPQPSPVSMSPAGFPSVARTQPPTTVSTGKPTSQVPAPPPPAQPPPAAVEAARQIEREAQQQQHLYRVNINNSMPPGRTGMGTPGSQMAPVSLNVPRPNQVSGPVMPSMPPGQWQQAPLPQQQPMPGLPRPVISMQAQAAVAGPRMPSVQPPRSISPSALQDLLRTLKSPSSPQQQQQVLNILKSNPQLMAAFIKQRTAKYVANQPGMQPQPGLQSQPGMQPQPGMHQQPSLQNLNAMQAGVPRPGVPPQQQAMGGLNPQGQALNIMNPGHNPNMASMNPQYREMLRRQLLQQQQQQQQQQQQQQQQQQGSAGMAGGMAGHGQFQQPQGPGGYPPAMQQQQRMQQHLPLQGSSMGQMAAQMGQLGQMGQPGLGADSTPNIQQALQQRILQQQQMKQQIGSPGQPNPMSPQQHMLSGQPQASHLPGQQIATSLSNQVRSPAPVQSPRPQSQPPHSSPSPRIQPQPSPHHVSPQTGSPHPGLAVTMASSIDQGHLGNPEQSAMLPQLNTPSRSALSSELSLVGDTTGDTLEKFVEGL
measuredAttribute: Kd (µM)
Give bare numbers, in µM.

Kd recorded for this compound, CNC(=O)c1cc(C(=O)NC2CC2)cn(Cc2ccccc2)c1=O , is 10

* * *

biological target: UniProt:Q9BXF3; assay: CECR2 DiscoverX BROMOscan
measuredAttribute: pKd
One number for each entry, as −log10 of the molar value.

// field: pKd; key: CNC(=O)c1cc(C(=O)NC2CC2)cn(Cc2ccccc2)c1=O ; value = 4.50

* * *

biological target: Sodium-dependent serotonin transporter (Homo sapiens)
pIC50: −log10 of the molar value.
measuredAttribute: pIC50

The compound identified as CNC(=O)c1cc(C(=O)NC2CC2)cn(Cc2ccccc2)c1=O registered its pIC50 at < 4.00

* * *

target: Histone acetyltransferase p300 (Homo sapiens); test: EP300 DiscoverX BROMOscan
measuredAttribute: pKd
Numbers only, as −log10 of the molar value.

So, CNC(=O)c1cc(C(=O)NC2CC2)cn(Cc2ccccc2)c1=O ? Its pKd was 5.10

* * *

target: Histone acetyltransferase KAT2B (Homo sapiens, UniProt Q92831); test: PCAF DiscoverX BROMOscan
measuredAttribute: Kd
A complete answer gives the number followed by the unit.

// Kd value for CNC(=O)c1cc(C(=O)NC2CC2)cn(Cc2ccccc2)c1=O : 31.6 µM

* * *

molecular target: Nuclear receptor subfamily 1 group I member 2 (Homo sapiens); assay: Cross screening panel
Sequence (O75469 whole entry): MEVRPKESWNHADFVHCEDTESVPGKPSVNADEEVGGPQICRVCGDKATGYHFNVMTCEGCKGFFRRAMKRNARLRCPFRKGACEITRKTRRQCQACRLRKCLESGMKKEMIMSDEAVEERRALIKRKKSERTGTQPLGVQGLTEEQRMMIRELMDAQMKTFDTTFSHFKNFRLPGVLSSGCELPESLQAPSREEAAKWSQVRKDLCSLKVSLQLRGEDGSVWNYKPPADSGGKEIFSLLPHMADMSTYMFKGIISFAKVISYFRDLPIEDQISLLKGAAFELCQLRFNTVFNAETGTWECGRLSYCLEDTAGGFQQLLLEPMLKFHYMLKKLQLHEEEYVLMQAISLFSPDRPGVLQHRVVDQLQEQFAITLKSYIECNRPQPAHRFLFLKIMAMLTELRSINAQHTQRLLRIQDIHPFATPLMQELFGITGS
pEC50: −log10 of the molar value.
measuredAttribute: pEC50

Summary line: CNC(=O)c1cc(C(=O)NC2CC2)cn(Cc2ccccc2)c1=O , Nuclear receptor subfamily 1 group I member 2 (Homo sapiens), reported pEC50 = < 4.30

* * *

biological target: Bromodomain adjacent to zinc finger domain protein 2B (Homo sapiens, UniProt Q9UIF8); assay: BAZ2B DiscoverX BROMOscan
measuredAttribute: pKd
One number for each entry, as −log10 of the molar value.

Lab note: measured pKd of CNC(=O)c1cc(C(=O)NC2CC2)cn(Cc2ccccc2)c1=O was 4.50

* * *

target: Transcription initiation factor TFIID subunit 1 (Homo sapiens, UniProt P21675); assay: TAF1(2) DiscoverX BROMOscan
measuredAttribute: pKd
Answers are plain numbers, as −log10 of the molar value.

Measured pKd, CNC(=O)c1cc(C(=O)NC2CC2)cn(Cc2ccccc2)c1=O : 5.40

* * *

target: Histone acetyltransferase KAT2A (Homo sapiens, UniProt Q92830); experiment: GCN5L2 DiscoverX BROMOscan
Sequence (Q92830 whole entry): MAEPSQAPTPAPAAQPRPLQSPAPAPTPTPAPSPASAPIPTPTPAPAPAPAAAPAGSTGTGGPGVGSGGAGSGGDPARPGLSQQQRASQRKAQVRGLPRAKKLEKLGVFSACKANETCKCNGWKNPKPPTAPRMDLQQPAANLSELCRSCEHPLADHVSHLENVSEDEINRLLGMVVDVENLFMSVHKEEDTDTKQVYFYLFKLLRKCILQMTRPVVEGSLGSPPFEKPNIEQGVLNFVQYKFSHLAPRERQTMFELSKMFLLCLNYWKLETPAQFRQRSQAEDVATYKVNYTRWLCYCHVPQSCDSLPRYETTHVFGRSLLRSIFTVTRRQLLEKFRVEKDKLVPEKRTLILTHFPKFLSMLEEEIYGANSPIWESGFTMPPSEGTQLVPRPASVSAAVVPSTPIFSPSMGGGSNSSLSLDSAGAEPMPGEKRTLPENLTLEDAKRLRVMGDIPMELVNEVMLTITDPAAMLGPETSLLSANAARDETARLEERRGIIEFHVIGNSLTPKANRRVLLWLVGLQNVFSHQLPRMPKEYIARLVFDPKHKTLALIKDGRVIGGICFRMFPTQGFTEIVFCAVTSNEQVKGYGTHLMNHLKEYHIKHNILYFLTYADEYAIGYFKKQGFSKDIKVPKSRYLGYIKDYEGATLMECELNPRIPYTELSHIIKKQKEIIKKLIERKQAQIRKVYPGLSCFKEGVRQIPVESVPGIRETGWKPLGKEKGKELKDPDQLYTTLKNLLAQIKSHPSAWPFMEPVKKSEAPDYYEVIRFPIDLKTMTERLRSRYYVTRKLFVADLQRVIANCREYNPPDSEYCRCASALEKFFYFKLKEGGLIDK
measuredAttribute: pKd
Answers are plain numbers, as −log10 of the molar value.

Record summary for CNC(=O)c1cc(C(=O)NC2CC2)cn(Cc2ccccc2)c1=O : reported pKd = 4.50

* * *

target: Bromodomain-containing protein 7 (Homo sapiens, UniProt Q9NPI1); assay: BRD7 DiscoverX BROMOscan
Sequence (Q9NPI1 whole entry): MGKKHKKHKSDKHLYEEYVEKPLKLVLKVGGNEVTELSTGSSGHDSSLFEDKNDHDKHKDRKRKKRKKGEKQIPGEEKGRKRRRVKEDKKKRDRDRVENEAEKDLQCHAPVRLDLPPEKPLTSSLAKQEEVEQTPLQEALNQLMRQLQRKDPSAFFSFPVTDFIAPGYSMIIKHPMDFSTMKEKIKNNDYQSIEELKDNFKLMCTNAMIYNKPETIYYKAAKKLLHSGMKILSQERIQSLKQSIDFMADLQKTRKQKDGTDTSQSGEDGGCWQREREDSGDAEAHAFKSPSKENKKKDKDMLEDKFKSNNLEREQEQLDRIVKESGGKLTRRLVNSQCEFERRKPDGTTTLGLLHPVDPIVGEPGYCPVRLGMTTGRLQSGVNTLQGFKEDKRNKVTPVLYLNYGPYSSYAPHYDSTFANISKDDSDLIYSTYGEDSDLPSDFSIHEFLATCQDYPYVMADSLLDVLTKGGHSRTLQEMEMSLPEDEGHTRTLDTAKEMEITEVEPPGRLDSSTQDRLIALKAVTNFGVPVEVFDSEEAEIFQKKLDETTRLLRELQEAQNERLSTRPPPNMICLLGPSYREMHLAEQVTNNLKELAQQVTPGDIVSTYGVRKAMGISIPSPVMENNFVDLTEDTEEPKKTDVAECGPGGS
measuredAttribute: pKd
Answers are plain numbers, as −log10 of the molar value.

Please fill in: pKd reported for CNC(=O)c1cc(C(=O)NC2CC2)cn(Cc2ccccc2)c1=O [GSK620] = 4.50
